quantity.measured: melting point

A selection of reference data follows.
- COc1ccc2c3c(c4cc(OC)c(OC)cc4c2c1)C[C@H]1CN(C2CC2)CCN1C3: 115 to 117 °C
- COc1ccc2c3c(c4cc(OC)c(OC)cc4c2c1)C[C@H]1CN(CCc2ccccc2)CN1C3 [Compound 3d, (S)-12-aza-12N-phenylethylenyl-antofine]: 85 to 87 °C
- COc1ccc2c3c(c4cc(OC)c(OC)cc4c2c1)C[C@H]1CN(CC(C)C)CN1C3: 93 to 95 °C

Inquiry: Requested read-out: melting point. Entry: CCCN1C[C@@H]2Cc3c(c4ccc(OC)cc4c4cc(OC)c(OC)cc34)CN2C1 [Compound 3c, (S)-12-aza-12N-propyl-antofine]
Reply text: 155 to 157 °C

Inquiry: Using the record for COc1ccc2c3c(c4cc(OC)c(OC)cc4c2c1)C[C@H]1CCN(CC(C)C)CN1C3 [Compound 11c, (S)-12-aza-12N-isobutyl-cryptopleurine] , report its melting point.
Reply text: 177 to 179 °C

Inquiry: Look up melting point: COc1ccc2c3c(c4cc(OC)c(OC)cc4c2c1)C[C@H]1CN(C(=O)c2ccccc2)CCN1C3 [Compound 8i, (S)-13-aza-13N-benzoyl-cryptopleurine]
Reply text: 203 °C (dec.)

Inquiry: Looking for the measured melting point of CCN1CCN2Cc3c(c4cc(OC)c(OC)cc4c4cc(OC)ccc34)C[C@H]2C1 [Compound 8b, (S)-13-aza-13N-ethyl-cryptopleurine] , can you help?
Reply text: 83 to 85 °C
